B1: ANKRD44 (parent)
chain: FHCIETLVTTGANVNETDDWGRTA

Variants of: B1
Run Description: protein stability index of a GFP-peptide fusion (GPS, HEK-293T) (PSI 1-6); higher = more stable;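 also: lentivirally expressed fusions sorted by FACS into six bins by GFP to DsRed ratio, PSI derived from sequencing read proportions per bin multiplied by bin number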
Test Context: c terminus: a fixed tail appended
Label rule, in plain words: protein stability index of 2 and up is true, under 2 is false.

| Residue Sequence | Category |
| --- | --- |
| FHCIETLVTTGANVNETDFWGRTA [D19F] | true |
| FHCIETLVTGGANVNETDDWGRTA [T10G] | false |

Item FHCIETLVTTGANVNFTDDWGRTA [E16F] with protein stability index of 2 or above? false

Item FHCIETLVTTGANVNEQDDWGRTA [T17Q] with protein stability index of 2 or above? true

Item FHCIETLVTTGANVNETDDWGKTA [R22K] with protein stability index of 2 or above? true
